Reference source for all entries: paper PMC5540273

# System: MAP3K15
# study_conditions: concentration: 1 μM, replicates: in singlicate; n = 1;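 also: KINOMEscan kinase panel screen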

{"item_smiles": "O=C(CCO)NCCn1ccc2ncnc(Nc3ccc(Oc4cccc(C(F)(F)F)c4)c(Cl)c3)c21", "%Inh [%]": 0}
{"item_smiles": "Fc1ccc(Nc2nccc(-c3c(-c4ccc(Cl)cc4)nn4ncccc34)n2)cc1F", "%Inh [%]": 24}
{"item_smiles": "COc1ccc(NC(=O)c2ccc(-c3cc(-c4nnc(C)o4)ccc3C)cc2)cc1", "%Inh [%]": 0}
{"item_smiles": "c1ccc(-c2ccc3c(-c4ccnc(Nc5ccc6c(c5)OCCO6)n4)cnn3n2)cc1", "%Inh [%]": 11}
{"item_smiles": "Fc1cccc(COc2ccc(Nc3ncnc4sc(-c5ccc[nH]5)cc34)cc2Cl)c1", "%Inh [%]": 0}
{"item_smiles": "C[C@H]1CC[C@@H](C(=O)Nc2ccccc2)CN1c1cc(-c2ccc3c(N)n[nH]c3c2)nc(N)n1", "%Inh [%]": 0}
{"item_smiles": "Cl.c1ccc(Cn2ccc3cc(Nc4ncnc5ccccc45)ccc32)cc1", "%Inh [%]": 0}
{"item_smiles": "Oc1ccc2ncnc(Nc3ccc(OCc4ccccc4)cc3)c2c1", "%Inh [%]": 20}
{"item_smiles": "Cl.Cn1ccc(-c2cccc(Nc3ccnc4cc(-c5nccs5)ccc34)c2)n1", "%Inh [%]": 0}
{"item_smiles": "C[C@@H]1CCN(C(=O)CO)C[C@@H]1N(C)c1ncnc2[nH]ccc12", "%Inh [%]": 0}
{"item_smiles": "CN1c2ccc(-c3ccc(C(=O)NCCO)cc3)cc2-c2[nH]ncc2S1(=O)=O", "%Inh [%]": 11}
{"item_smiles": "CC(C)N1CCC(n2cnc(-c3ccc(F)cc3)c2-c2ccnc(N)n2)CC1", "%Inh [%]": 0}
{"item_smiles": "Nc1nc(-c2ccc3c(N)n[nH]c3c2)cc(N2CCCCC2)n1", "%Inh [%]": 0}
{"item_smiles": "CS(=O)(=O)CCNCc1ccc(-c2ccc3ncnc(Nc4ccc(OCc5ccccc5)c(Cl)c4)c3c2)o1.Cl", "%Inh [%]": 5}
{"item_smiles": "CNc1nccc(-c2c(-c3ccc(F)cc3)ncn2C2CCN(C)CC2)n1", "%Inh [%]": 0}
{"item_smiles": "COC(=O)c1cccc(NC(=O)NCCNc2ccnc(Nc3ccc(F)cc3)n2)c1", "%Inh [%]": 0}
{"item_smiles": "CN1CCC(n2cnc(-c3ccc(F)cc3)c2-c2ccnc(NC3CCNCC3)n2)CC1", "%Inh [%]": 0}
{"item_smiles": "CNc1nccc(-c2c(-c3ccc(F)cc3)ncn2CCCN2CCOCC2)n1", "%Inh [%]": 0}

----------
# Tested on: ERBB3
# study_conditions: concentration: 1 μM, replicates: in singlicate; n = 1

{"compound": "Clc1cc(Nc2ncnc3cc[nH]c23)ccc1OCc1ccccn1", "assay_target": "ERBB3", "%Inh [%]": 24}
{"compound": "Nc1n[nH]c2nnc(-c3ccccc3)cc12 [SB-517389]", "assay_target": "ERBB3", "%Inh [%]": 0}
{"compound": "Nc1nc(-c2ccc3c(N)n[nH]c3c2)cc(N2CCC[C@@H](C(=O)Nc3ccccc3)C2)n1.O=C(O)C(F)(F)F.O=C(O)C(F)(F)F [GSK2288359]", "assay_target": "ERBB3", "%Inh [%]": 0}
{"compound": "N#Cc1ccc(Oc2ccc(Nc3ncnc4cc[nH]c34)cc2Cl)cc1", "assay_target": "ERBB3", "%Inh [%]": 9}
{"compound": "O=C(CCO)NCCn1ccc2ncnc(Nc3ccc(Oc4cccc(C(F)(F)F)c4)c(Cl)c3)c21", "assay_target": "ERBB3", "%Inh [%]": 0}
{"compound": "Fc1cccc(COc2ccc(Nc3ncnc4nn5ccccc5c34)cc2Cl)c1 [GW689066]", "assay_target": "ERBB3", "%Inh [%]": 27}
{"compound": "Cc1cccc(-c2nc(Nc3ccc4[nH]nnc4c3)c3ccccc3n2)n1 [GW867587]", "assay_target": "ERBB3", "%Inh [%]": 0}
{"compound": "COC(=O)c1cccc(NC(=O)NCCNc2ccnc(Nc3ccc(F)cc3)n2)c1 [GSK1379883]", "assay_target": "ERBB3", "%Inh [%]": 15}
{"compound": "C[C@H]1CC[C@@H](C(=O)Nc2ccccc2)CN1c1cc(-c2ccc3c(N)n[nH]c3c2)nc(N)n1 [GSK2283293]", "assay_target": "ERBB3", "%Inh [%]": 0}
{"compound": "Cn1cc(-c2ccc3c(c2)CCN3C(=O)Cc2cccc(C(F)(F)F)c2)c2c(N)ncnc21 [GSK2606414]", "assay_target": "ERBB3", "%Inh [%]": 0}
{"compound": "FC(F)(F)c1cc(Nc2nccc(-c3c(-c4ccc(Cl)cc4)nn4ncccc34)n2)ccc1Cl [GW829351]", "assay_target": "ERBB3", "%Inh [%]": 0}
{"compound": "COc1cc2ncnc(Nc3ccc(OCc4ccccc4Br)c(Cl)c3)c2cc1OC.Cl [GI261590]", "assay_target": "ERBB3", "%Inh [%]": 29}
{"compound": "Nc1nc(-c2ccccn2)c(-c2ccnc3ccccc23)s1 [GW548057]", "assay_target": "ERBB3", "%Inh [%]": 31}
{"compound": "CNc1nccc(-c2c(-c3ccc(F)cc3)ncn2CCCN2CCOCC2)n1 [SB-222516]", "assay_target": "ERBB3", "%Inh [%]": 30}
{"compound": "COc1ccc(NC(=O)Nc2ccc(C)c(-c3ccc(C(=O)Nc4ccncc4)cc3)c2)cc1 [GSK1398475]", "assay_target": "ERBB3", "%Inh [%]": 0}
{"compound": "O=c1cc(N2CCOCC2)nc2n(Cc3cccc(Cl)c3)ccn12 [GSK2296823]", "assay_target": "ERBB3", "%Inh [%]": 0}
{"compound": "COc1ccc(Nc2nccc(N3CCC(NC(=O)Nc4ccc5c(c4)OCO5)C3)n2)cc1 (centres unmarked) [GSK1379745]", "assay_target": "ERBB3", "%Inh [%]": 28}
{"compound": "Nc1nc(-c2cccnc2)c(-c2ccnc3ccccc23)s1 [GW684083]", "assay_target": "ERBB3", "%Inh [%]": 20}
{"compound": "Cc1ccc(NC(=O)c2cccc(C#N)c2)cc1-c1ccc(C(=O)Nc2ccncc2)cc1 [GSK1398463]", "assay_target": "ERBB3", "%Inh [%]": 0}
{"compound": "CN1CCC(n2cnc(-c3ccc(F)cc3)c2-c2ccnc(NC3CCNCC3)n2)CC1 [SB-229482]", "assay_target": "ERBB3", "%Inh [%]": 18}
{"compound": "NC(=O)c1sc(-n2cnc3ccccc32)cc1OCc1ccccc1F [GSK1024306]", "assay_target": "ERBB3", "%Inh [%]": 18}
{"compound": "C[C@@H]1CCN(C(=O)CO)C[C@@H]1N(C)c1ncnc2[nH]ccc12", "assay_target": "ERBB3", "%Inh [%]": 0}
{"compound": "CN1c2ccc(-c3ccc(C(=O)NCCO)cc3)cc2-c2[nH]ncc2S1(=O)=O", "assay_target": "ERBB3", "%Inh [%]": 0}
{"compound": "Cn1ccc2ncnc(Nc3ccc(Oc4cccc(Cl)c4)c(Cl)c3)c21", "assay_target": "ERBB3", "%Inh [%]": 17}
{"compound": "FC(F)(F)c1ccc(-c2cc(-c3c[nH]nc3-c3ccccn3)ccn2)cc1 [GW599550]", "assay_target": "ERBB3", "%Inh [%]": 16}
{"compound": "c1ccc(-c2ccc3c(-c4ccnc(Nc5ccc6c(c5)OCCO6)n4)cnn3n2)cc1 [GW818941]", "assay_target": "ERBB3", "%Inh [%]": 15}
{"compound": "CNc1nccc(-c2c(-c3ccc(F)cc3)ncn2C2CCN(C)CC2)n1 [SB-222903]", "assay_target": "ERBB3", "%Inh [%]": 0}
{"compound": "Cl.Cn1ccc(-c2cccc(Nc3ccnc4cc(-c5nccs5)ccc34)c2)n1 [GW525701]", "assay_target": "ERBB3", "%Inh [%]": 64}
{"compound": "O=C(Nc1ccccc1)Nc1ccc(Oc2ccc3nccn3n2)cc1", "assay_target": "ERBB3", "%Inh [%]": 0}
{"compound": "COc1cc2c(Nc3cccc(NC(=O)c4ccccc4)c3)ncnc2cc1OCCCN1CCOCC1 [GSK223810]", "assay_target": "ERBB3", "%Inh [%]": 0}
{"compound": "CCCc1ccc(S(=O)(=O)NC2CCN(c3ccnc(Nc4ccc(OC)cc4)n3)C2)cc1 (centres unmarked) [GSK1379737]", "assay_target": "ERBB3", "%Inh [%]": 0}
{"compound": "CC(C)(C)OC(=O)NC1CCCN(c2cc(-c3ccc4c(N)n[nH]c4c3)nc(N)n2)C1 (centres unmarked) [GSK2286096]", "assay_target": "ERBB3", "%Inh [%]": 0}
